- target: GLS1 (purified recombinant human GAC) (Homo sapiens, UniProt O94925)
- Sequence (O94925 55-598 isoform O94925-3 limits assumed): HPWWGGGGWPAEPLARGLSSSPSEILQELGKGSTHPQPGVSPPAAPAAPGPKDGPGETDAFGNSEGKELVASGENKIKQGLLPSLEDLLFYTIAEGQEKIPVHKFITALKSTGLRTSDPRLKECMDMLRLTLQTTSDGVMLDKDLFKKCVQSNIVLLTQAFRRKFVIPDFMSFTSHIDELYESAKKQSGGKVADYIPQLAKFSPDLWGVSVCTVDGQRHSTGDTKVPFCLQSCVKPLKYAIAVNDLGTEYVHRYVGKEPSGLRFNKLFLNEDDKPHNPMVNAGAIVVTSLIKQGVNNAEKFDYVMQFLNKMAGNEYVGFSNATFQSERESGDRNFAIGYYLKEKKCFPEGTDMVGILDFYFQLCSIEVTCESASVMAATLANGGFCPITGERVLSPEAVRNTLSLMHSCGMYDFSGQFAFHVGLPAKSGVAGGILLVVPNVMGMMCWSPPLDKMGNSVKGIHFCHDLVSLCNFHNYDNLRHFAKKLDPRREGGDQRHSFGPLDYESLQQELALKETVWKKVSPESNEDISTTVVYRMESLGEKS
- method: GLS1 Enzymatic Activity Assay (dual-coupled enzymatic assay)
- Type: biochemical
- conditionLabel: 50 mM potassium phosphate, 1 mM glutamine, read-out: IC50 against GLS1
- Procedure: GLS1 Enzymatic Activity Assay The inhibition of purified recombinant human GAC by varying concentrations of inhibitors is assessed via a dual-coupled enzymatic assay. […] The production of resorufin was monitored on a Perkin Elmer Envision plate reader (excitation 530 nm, emission 590 nm) either in a kinetics or endpoint mode (at 20 minutes). IC50 values were calculated using a four-parameter logistic curve fit.
recordedMetric: IC50

Requested field: IC50. Item: CC(=O)Nc1nnc(C2CCCN(c3ccc(NC(=O)Cc4ccccc4)nn3)C2)s1 (centres unmarked) [Example 4]
0.1 to 0.5 µM

Requested field: IC50. Item: O=C(Cc1ccccc1)Nc1ccc(N2CCCC(c3nnc(NC(=O)Cc4ccccn4)s3)C2)nn1 (centres unmarked) [Example 3]
< 0.1 µM

Requested field: IC50. Item: O=C(Cc1ccccn1)Nc1ccc(C2CCN(c3nnc(C(=O)NCc4cccc(OC(F)(F)F)c4)s3)C2)nn1 (centres unmarked) [Example 43]
< 0.1 µM

Requested field: IC50. Item: O=C(Cc1cccc(OC(F)(F)F)c1)Nc1ccc(C2CCN(c3nnc(NC(=O)Cc4ccccn4)s3)C2)nn1 (centres unmarked) [Example 21]
< 0.1 µM

Requested field: IC50. Item: CC(=O)Nc1nnc(C2CCCN(c3ccc(NC(=O)Cc4cccc(OC(F)(F)F)c4)nn3)C2)s1 (centres unmarked) [Example 15]
< 0.1 µM
